target: NOS1, P29475; assay: holdup assay; parameters: key: below the threshold = too weak to quantify, mostly under pKd 3.1 to 4; conditions: plain residues with an end cap or a label only (N-terminal biotin on a linker: ado-ado)
Sequence (P29475 9-101): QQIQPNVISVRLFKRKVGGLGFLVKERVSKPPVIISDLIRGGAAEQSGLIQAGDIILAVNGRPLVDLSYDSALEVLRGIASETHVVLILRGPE
Listed below: pKd values for each entry.

| BINDER | pKd |
| --- | --- |
| DDEDRLVIEI [ZNF831, Q5JPB2] | 3.64 |
| MLSKQSESAI [FLVCR1, Q9Y5Y0] | 3.79 |
| PRAEAEDSFL [PDGFRB, P09619] | 3.57 |
| QPCFNKLFPL [LPXN, O60711] | 3.5 |
| PEYLGLDVPV [ERBB2, P04626] | 3.9 |
